B1: E3 ubiquitin-protein ligase NEDD4-like, residues 539 to 589; numbered along this chain, Q96PU5 (parent)
chain: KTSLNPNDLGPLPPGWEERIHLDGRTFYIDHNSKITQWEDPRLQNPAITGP

Variants of: B1
assay_overview: abundance fitness (aPCA) (normalised: wild type 0, dead -1); higher = more abundant; growth selection in yeast, the domain comes from the species named
run_conditions: Homo sapiens
Can you tell me abundance fitness for the items I'm about to list?
Number only, no unit.

In plain terms, "D8W" has a documented abundance fitness of -0.466

In plain terms, "P46F" has a documented abundance fitness of -0.228

In plain terms, "N45D" has a documented abundance fitness of -0.213

In plain terms, "W16Y" has a documented abundance fitness of -0.41

In plain terms, "G24L" has a documented abundance fitness of -0.938

In plain terms, "F27G" has a documented abundance fitness of -0.197

In plain terms, "K34V" has a documented abundance fitness of -0.58
